This listing pairs molecules with measured pIC50.
tested on: human lung cancer strain NCI-H441; assay: NCI-H441 cell proliferation inhibitory activity (CellTiter-Glo, 4 days); format: cell-based; conditions: NCI-H441 cells, 4 days, read-out: NCl-H441 IC50
Interpret pIC50 as the negative base-10 log of the concentration measured in mol/L.

Look over these answered cases.
C#CCN1CC(=O)N(C)[C@H]2C/C=C\CCN(C2=O)[C@@H](Cc2ccc(C(F)F)cc2)C(=O)N(C)CC(=O)N[C@@H](CCc2cc(F)c(C(F)(F)F)c(F)c2)C(=O)N2C[C@H](OCC)C[C@H]2C(=O)N(C)C2(CCC2)C(=O)N(C)[C@@H](C(CC)CC)C(=O)N(C)[C@H](C(=O)N(C)C)CC(=O)N(C)[C@@H](COCCC)C(=O)N[C@@H]([C@@H](C)OC)C1=O [PP3506]    7.90
C#CC[C@H]1C(=O)N[C@@H]([C@@H](C)CC)C(=O)N2CCC[C@H]2C(=O)N(C)[C@H]2C/C=C\CCN(C2=O)[C@@H](Cc2ccc(C)cc2)C(=O)N(C)CC(=O)N[C@@H](CCc2ccc(C(F)(F)F)c(Cl)c2)C(=O)N2C[C@H](OCC)C[C@H]2C(=O)N(C)C2(CCC2)C(=O)N(C)[C@@H](C2CCCC2)C(=O)N(C)[C@H](C(=O)N(C)C)CC(=O)N1C [PP3257]    8.66
CCCOC[C@H]1C(=O)N[C@@H]([C@@H](C)CC)C(=O)N(C)CC(=O)N(C)[C@H]2C/C=C\CCN(C2=O)[C@@H](CC2CCCCC2)C(=O)N(C)CC(=O)N[C@@H](CCc2cc(F)c(C(F)(F)F)c(F)c2)C(=O)N2C[C@H](OCC)C[C@H]2C(=O)NC2(CC(C)(C)C2)C(=O)N(C)[C@@H](C(CC)CC)C(=O)N(C)[C@H](C(=O)N(C)C)CC(=O)N1C [PP2501]    6.74
CCCO[C@@H]1C[C@H]2C(=O)NC3(CC(C)(C)C3)C(=O)N(C)[C@@H](C3CCCC3)C(=O)N(C)[C@H](C(=O)N(C)CC)CC(=O)N[C@@H](COCC)C(=O)N[C@@H]([C@@H](C)CC)C(=O)N(C3CC3)CC(=O)N(C)[C@H]3C/C=C\CCN(C3=O)[C@@H](Cc3ccc(C)cc3)C(=O)N(C)CC(=O)N[C@@H](CCc3cc(F)c(C(F)(F)F)c(F)c3)C(=O)N2C1 [PP3421]    7.17

Prompt: Consider the molecule shown here: CCO[C@@H]1C[C@H]2C(=O)NC3(CC(C)(C)C3)C(=O)N(C)[C@@H](C(CC)CC)C(=O)N(C)[C@H](C(=O)N(C)C)CC(=O)N(C)[C@@H](CC3CC3)C(=O)N[C@@H]([C@@H](C)CC)C(=O)N(C)CC(=O)N(C)[C@H]3C/C=C\CCN(C3=O)[C@@H](CC3CCC(F)(F)CC3)C(=O)N(C)CC(=O)N[C@@H](CCc3cc(F)c(C(F)(F)F)c(F)c3)C(=O)N2C1 [PP2485] What is its recorded pIC50?
Completion: 7.26

Prompt: # get_value(readout='pIC50', item= CCC[C@H]1C(=O)N[C@@H]([C@@H](C)CC)C(=O)N(C)CC(=O)N(C)[C@H]2C/C=C\CCN(C2=O)[C@@H](Cc2ccc(C)cc2)C(=O)N(C)CC(=O)N[C@@H](CCc2cc(F)c(C(F)(F)F)c(F)c2)C(=O)N2CC3(CC3)C[C@H]2C(=O)N(C)C2(CCC2)C(=O)N(C)[C@@H]([C@@H](C)CC)C(=O)N(C)[C@H](C(=O)N(C)C)CC(=O)N1C [PP3331] )
Completion: 8.15
